Assay notes: Food effect PK study, two single oral 1000 mg doses of abiraterone acetate, fed (high fat) vs fasted
Type: in vivo, human
Experimental context: human, plasma, oral, 1000 mg, Patient 21; Fasted; sample time 2.167
Readout kind: concentration at 2.167 h (nM)

>>> result("C[C@]12CC[C@H](O)CC1=CC[C@@H]1[C@@H]2CC[C@]2(C)C(c3cccnc3)=CC[C@@H]12 [Abiraterone]")
648

* * *

Assay notes: Food effect PK study, two single oral 1000 mg doses of abiraterone acetate, fed (high fat) vs fasted
Format: in vivo, human
Experimental context: human, plasma, oral, 1000 mg, Patient 15; Fasted; sample time 8.000 hr
Readout kind: concentration at 8 hr

>>> result("C[C@]12CC[C@H](O)CC1=CC[C@@H]1[C@@H]2CC[C@]2(C)C(c3cccnc3)=CC[C@@H]12")
"111 nM"

* * *

Assay notes: Food effect PK study, two single oral 1000 mg doses of abiraterone acetate, fed (high fat) vs fasted
Type: in vivo, human
Experimental context: human, plasma, oral, 1000 mg, Patient 21; Fasted; sample time 1.000
Readout kind: concentration at 1 h (nM)

>>> result("C[C@]12CC[C@H](O)CC1=CC[C@@H]1[C@@H]2CC[C@]2(C)C(c3cccnc3)=CC[C@@H]12 [Abiraterone]")
414

* * *

Assay notes: Food effect PK study, two single oral 1000 mg doses of abiraterone acetate, fed (high fat) vs fasted
Type: in vivo, human
Experimental context: human, plasma, oral, 1000 mg, Patient 19; Fasted; sample time 6.000 hr
Readout kind: concentration at 6 hr (nM)

>>> result("C[C@]12CC[C@H](O)CC1=CC[C@@H]1[C@@H]2CC[C@]2(C)C(c3cccnc3)=CC[C@@H]12")
432

* * *

Assay notes: Food effect PK study, two single oral 1000 mg doses of abiraterone acetate, fed (high fat) vs fasted
Format: in vivo, human
Experimental context: human, plasma, oral, 1000 mg, Patient 19; Fasted; sample time 8.017 hr
Readout kind: concentration at 8.017 hr (nM)

>>> result("C[C@]12CC[C@H](O)CC1=CC[C@@H]1[C@@H]2CC[C@]2(C)C(c3cccnc3)=CC[C@@H]12 [Abiraterone]")
177

* * *

Assay notes: Pharmacokinetic study of abiraterone in hormone refractory prostate cancer patients, oral doses 250-2000 mg/day, fasted
Assay type: in vivo, human
Experimental context: male, human; mean; 2000 mg/day abiraterone acetate oral, fasted; plasma
Readout kind: Tmax (h)

>>> result("C[C@]12CC[C@H](O)CC1=CC[C@@H]1[C@@H]2CC[C@]2(C)C(c3cccnc3)=CC[C@@H]12")
2.67

* * *

Assay notes: Food effect PK study, two single oral 1000 mg doses of abiraterone acetate, fed (high fat) vs fasted
Assay type: in vivo, human
Experimental context: human, plasma, oral, 1000 mg, Patient 20; Fed; sample time 4.000
Readout kind: concentration at 4 h (nM)

>>> result("C[C@]12CC[C@H](O)CC1=CC[C@@H]1[C@@H]2CC[C@]2(C)C(c3cccnc3)=CC[C@@H]12")
422

* * *

Assay notes: Food effect PK study, two single oral 1000 mg doses of abiraterone acetate, fed (high fat) vs fasted
Assay type: in vivo, human
Experimental context: human, plasma, oral, 1000 mg, Patient 13; Fasted; sample time 48.117 hr
Readout kind: concentration at 48.117 hr

>>> result("C[C@]12CC[C@H](O)CC1=CC[C@@H]1[C@@H]2CC[C@]2(C)C(c3cccnc3)=CC[C@@H]12")
"5.8 nM"
